# Assay protocol: Half-lives and pharmacokinetic parameters of polypeptides vs HM-1
# Stated conditions: in vivo; read-out: MRT0-∞
Ends that are not written are not given here.
Observation type: MRT inf (min)
Express the result in min but write the number alone.

Asked: Fill in MRT inf for record H-RGADRAGGGGRGD [HM-1]
Given back: 4.08

* * *

Each item that follows carries a reported MRT inf.
# Assay protocol: Half-lives and pharmacokinetic parameters of polypeptides vs HM-1
# Stated conditions: in vivo
Peptide text beside a SMILES is read from it. * marks the point of attachment. MaleimidoPEG4propanoyl = O=C1C=CC(=O)N1CCOCCOCCOCCOCCC(=O)*; Propanoyl(3-maleimido) = O=C1C=CC(=O)N1CCC(=O)*; X63 = O=C1C=CC(=O)N1c1ccccc1CCCCCCC(=O)*; X33 = O=C1C=CC(=O)N1CCOCCOCCOCCCCC(=O)*; X80 = O=C1C=CC(=O)N1c1ccccc1CCC(=O)*; X3 = O=C1C=CC(=O)N1CCOCCOCCCCC(=O)*; X12 = O=C1C=CC(=O)N1CCOCCCCC(=O)*; X83 = O=C1C=CC(=O)N1CCCCCCC(=O)*
Please reply with the bare figure in h and do not write the unit itself.

Below, each entry is followed by its recorded MRT inf result.
| Compound | Units text | MRT inf |
| --- | --- | --- |
| C[C@H](NC(=O)CNC(=O)[C@H](CCCNC(=N)N)NC(=O)CCCCOCCN1C(=O)C=CC1=O)C(=O)N[C@@H](CC(=O)O)C(=O)N[C@@H](CCCNC(=N)N)C(=O)N[C@@H](C)C(=O)NCC(=O)NCC(=O)NCC(=O)NCC(=O)N[C@@H](CCCNC(=N)N)C(=O)NCC(=O)N[C@@H](CC(=O)O)C(=O)O [X52] (X12-RGADRAGGGGRGD-OH) | h | 50.1 |
| C[C@H](NC(=O)CNC(=O)[C@H](CCCNC(=N)N)NC(=O)CCc1ccccc1N1C(=O)C=CC1=O)C(=O)N[C@@H](CC(=O)O)C(=O)N[C@@H](CCCNC(=N)N)C(=O)N[C@@H](C)C(=O)NCC(=O)NCC(=O)NCC(=O)NCC(=O)N[C@@H](CCCNC(=N)N)C(=O)NCC(=O)N[C@@H](CC(=O)O)C(=O)O [X14] (X80-RGADRAGGGGRGD-OH) | h | 52 |
| C[C@H](NC(=O)CNC(=O)[C@H](CCCNC(=N)N)NC(=O)CCCCCCc1ccccc1N1C(=O)C=CC1=O)C(=O)N[C@@H](CC(=O)O)C(=O)N[C@@H](CCCNC(=N)N)C(=O)N[C@@H](C)C(=O)NCC(=O)NCC(=O)NCC(=O)NCC(=O)N[C@@H](CCCNC(=N)N)C(=O)NCC(=O)N[C@@H](CC(=O)O)C(=O)O [X18] (X63-RGADRAGGGGRGD-OH) | h | 48.7 |
| C[C@H](NC(=O)CNC(=O)[C@H](CCCNC(=N)N)NC(=O)CCCCOCCOCCN1C(=O)C=CC1=O)C(=O)N[C@@H](CC(=O)O)C(=O)N[C@@H](CCCNC(=N)N)C(=O)N[C@@H](C)C(=O)NCC(=O)NCC(=O)NCC(=O)NCC(=O)N[C@@H](CCCNC(=N)N)C(=O)NCC(=O)N[C@@H](CC(=O)O)C(=O)O [X59] (X3-RGADRAGGGGRGD-OH) | h | 54.2 |
| C[C@H](NC(=O)CNC(=O)[C@H](CCCNC(=N)N)NC(=O)CCOCCOCCOCCOCCN1C(=O)C=CC1=O)C(=O)N[C@@H](CC(=O)O)C(=O)N[C@@H](CCCNC(=N)N)C(=O)N[C@@H](C)C(=O)NCC(=O)NCC(=O)NCC(=O)NCC(=O)N[C@@H](CCCNC(=N)N)C(=O)NCC(=O)N[C@@H](CC(=O)O)C(=O)O [X71] (MaleimidoPEG4propanoyl-RGADRAGGGGRGD-OH) | h | 50.7 |

Asked: Read off the recorded MRT inf for C[C@H](NC(=O)[C@H](CCCNC(=N)N)NC(=O)[C@H](CC(=O)O)NC(=O)[C@H](CCC(=O)O)NC(=O)CNC(=O)[C@H](CCCNC(=N)N)NC(=O)CCN1C(=O)C=CC1=O)C(=O)NCC(=O)NCC(=O)NCC(=O)NCC(=O)N[C@@H](CCCNC(=N)N)C(=O)NCC(=O)N[C@@H](CC(=O)O)C(=O)O [P5] ({Propanoyl(3-maleimido)}-RGEDRAGGGGRGD-OH; C-terminus assumed)
Given back: 52.4

Asked: Specify reported MRT inf for the compound shown: C[C@H](NC(=O)CNC(=O)[C@H](CCCNC(=N)N)NC(=O)CCCCOCCOCCOCCN1C(=O)C=CC1=O)C(=O)N[C@@H](CC(=O)O)C(=O)N[C@@H](CCCNC(=N)N)C(=O)N[C@@H](C)C(=O)NCC(=O)NCC(=O)NCC(=O)NCC(=O)N[C@@H](CCCNC(=N)N)C(=O)NCC(=O)N[C@@H](CC(=O)O)C(=O)O [X66] (X33-RGADRAGGGGRGD-OH)
Given back: 49.6

Asked: Return the recorded MRT inf value; entry: C[C@H](NC(=O)CNC(=O)[C@H](CCCNC(=N)N)NC(=O)CCCCCCN1C(=O)C=CC1=O)C(=O)N[C@@H](CC(=O)O)C(=O)N[C@@H](CCCNC(=N)N)C(=O)N[C@@H](C)C(=O)NCC(=O)NCC(=O)NCC(=O)NCC(=O)N[C@@H](CCCNC(=N)N)C(=O)NCC(=O)N[C@@H](CC(=O)O)C(=O)O [X6] (X83-RGADRAGGGGRGD-OH)
Given back: 54.6
